The values you see were collected from paper PMC6572184.

# Tested on: L929 cell lines (mouse fibroblasts)
# experimentSummary: MTT reduction cytotoxicity assay
# Type: cell-based
# assaySetup: 5 μg/mL, 24 h
Would you kindly list mean percentage of viable cells ± SD for each of these molecules?
Lab book: enter the figure in %, no units written.

Data point: CC1CC(=O)OC(c2ccccc2)C1Br (mixture of isomers) [8b] ; mean percentage of viable cells ± SD = 15

Data point: CC1CC(=O)OC(c2ccc(F)cc2)C1I (mixture of isomers) [10c] ; mean percentage of viable cells ± SD = 12

Data point: CC1CC(=O)OC(c2ccccc2)C1Cl (mixture of isomers) [6b] ; mean percentage of viable cells ± SD = 25

Data point: CC1CC(=O)OC(c2ccccc2)C1Cl (stereo not drawn) [5b] ; mean percentage of viable cells ± SD = 12

Data point: CC1CC(=O)OC(c2cccc3ccccc23)C1Br (mixture of isomers) [8a] ; mean percentage of viable cells ± SD = 14

Data point: CC1CC(=O)OC(c2ccc(F)cc2)C1Br (mixture of isomers) [8c] ; mean percentage of viable cells ± SD = 15

====

Would you kindly list viability at 24 h, 10 μg/mL for each of these compounds?
# experimentSummary: MTT reduction cytotoxicity assay
# Type: cell-based, human
# assaySetup: human, AGS cells (human gastric adenocarcinoma), 10 μg/mL, 24 h, read-out: mean percentage of viable cells ± SD
Lab book: enter the figure in %, no units written.

Data point: CC1CC(=O)OC(c2ccccc2)C1Cl (stereo not shown) ; viability at 24 h, 10 μg/mL = 14

Data point: CC1CC(=O)OC(c2ccccc2)C1Br (stereo not shown) ; viability at 24 h, 10 μg/mL = 20

Data point: C[C@@H]1CC(=O)O[C@H](c2cccc3ccccc23)[C@H]1Cl (relative stereo) ; viability at 24 h, 10 μg/mL = 27

Data point: CC1CC(=O)OC(c2ccccc2)C1I (stereo not shown) ; viability at 24 h, 10 μg/mL = 26

Data point: C[C@@H]1CC(=O)O[C@H]1[C@@H](O)c1cccc2ccccc12 (mixture of isomers) [12a] ; viability at 24 h, 10 μg/mL = 18

Data point: C[C@@H]1CC(=O)O[C@@H]1[C@@H](O)c1cccc2ccccc12 [13a] ; viability at 24 h, 10 μg/mL = 18

Data point: CC1CC(=O)OC(c2cccc3ccccc23)C1Br (stereo not shown) ; viability at 24 h, 10 μg/mL = 21

====

Would you kindly list viability at 24 h, 5 μg/mL for each of these compounds?
# experimentSummary: MTT reduction cytotoxicity assay
# Type: cell-based, mouse
# assaySetup: mouse, L929 cells (mouse fibroblasts), 5 μg/mL, read-out: mean percentage of viable cells ± SD
Lab book: enter the figure in %, no units written.

Data point: C[C@@H]1CC(=O)O[C@H](c2cccc3ccccc23)[C@H]1Cl (relative stereo) ; viability at 24 h, 5 μg/mL = 10

Data point: C[C@@H]1CC(=O)O[C@@H]1[C@@H](O)c1cccc2ccccc12 [13a] ; viability at 24 h, 5 μg/mL = 9

Data point: C[C@@H]1CC(=O)O[C@H]1[C@@H](O)c1cccc2ccccc12 (mixture of isomers) [12a] ; viability at 24 h, 5 μg/mL = 10

Data point: CC1CC(=O)OC(c2ccccc2)C1I (stereo not drawn) ; viability at 24 h, 5 μg/mL = 13

Data point: CC1CC(=O)OC(c2ccccc2)C1Br (stereo not drawn) ; viability at 24 h, 5 μg/mL = 13

Data point: CC1CC(=O)OC(c2cccc3ccccc23)C1Br (stereo not drawn) ; viability at 24 h, 5 μg/mL = 12

====

Would you kindly list mean percentage of viable cells ± SD for each of these compounds?
# Test system: L929 cell lines (mouse fibroblasts)
# experimentSummary: MTT reduction cytotoxicity assay
# Assay type: cell-based
# assaySetup: 0.5 μg/mL, 24 h
Lab book: enter the figure in %, no units written.

Data point: CC1CC(=O)OC(c2ccc(F)cc2)C1Br (mixture of isomers) [8c] ; mean percentage of viable cells ± SD = 20

Data point: CC1CC(=O)OC(c2ccc(F)cc2)C1I (mixture of isomers) [10c] ; mean percentage of viable cells ± SD = 18

Data point: CC1CC(=O)OC(c2ccccc2)C1Cl (mixture of isomers) ; mean percentage of viable cells ± SD = 27

Data point: CC1CC(=O)OC(c2ccccc2)C1I (mixture of isomers) [10b] ; mean percentage of viable cells ± SD = 20

Data point: CC1CC(=O)OC(c2cccc3ccccc23)C1Br (mixture of isomers) ; mean percentage of viable cells ± SD = 19

Data point: CC1CC(=O)OC(c2ccc(F)cc2)C1Cl (mixture of isomers) [6c] ; mean percentage of viable cells ± SD = 22

====

Would you kindly list mean percentage of viable cells ± SD for each of these molecules?
# System: L929 cell lines (mouse fibroblasts)
# experimentSummary: MTT reduction cytotoxicity assay
# Type: cell-based
# assaySetup: 20 μg/mL, 24 h
# Description: Cell cultures: The L929 mouse fibroblasts and human gastric adenocarcinoma cell line AGS were used for in vitro cytotoxicity assays. […] The viability of the cells was assessed by exclusion of trypan blue dye. Measurements of cellular metabolic activity and global growth inhibition: L929 cells were seeded into 96-well plates (2 × 10 ^5 cells/well) for 24 h, at 37 ^∘ C, 5% CO2 . […] Results are expressed as the mean percentage of viable cells ± standard deviation (SD) of four independent experiments. […]
Lab book: enter the figure in %, no units written.

Data point: CC1CC(=O)OC(c2ccc(F)cc2)C1Br (mixture of isomers) [8c] ; mean percentage of viable cells ± SD = 5

Data point: CC1CC(=O)OC(c2ccc(F)cc2)C1Cl (mixture of isomers) [6c] ; mean percentage of viable cells ± SD = 4

Data point: CC1CC(=O)OC(c2ccc(F)cc2)C1Br (centres unmarked) [7c] ; mean percentage of viable cells ± SD = 5

Data point: CC1CC(=O)OC(c2cccc3ccccc23)C1Br (mixture of isomers) ; mean percentage of viable cells ± SD = 4

Data point: CC1CC(=O)OC(c2ccc(F)cc2)C1I (mixture of isomers) [10c] ; mean percentage of viable cells ± SD = 2

Data point: CC1CC(=O)OC(c2ccc(F)cc2)C1Cl (centres unmarked) [5c] ; mean percentage of viable cells ± SD = 4

Data point: CC1CC(=O)OC(c2ccccc2)C1Br (mixture of isomers) ; mean percentage of viable cells ± SD = 4

Data point: CC1CC(=O)OC(c2ccc(F)cc2)C1I (centres unmarked) [9c] ; mean percentage of viable cells ± SD = 3

====

Would you kindly list mean percentage of viable cells ± SD for each of these molecules?
# Tested on: AGS cell lines (human gastric adenocarcinoma)
# experimentSummary: MTT reduction cytotoxicity assay
# Format: cell-based
# assaySetup: 10 μg/mL, 24 h

Data point: CC1CC(=O)OC(c2ccc(F)cc2)C1I (mixture of isomers) [10c] ; mean percentage of viable cells ± SD = 13 ± 0.03%

Data point: CC1CC(=O)OC(c2ccc(F)cc2)C1Br (stereo not drawn) [7c] ; mean percentage of viable cells ± SD = 25 ± 0.12%

Data point: CC1CC(=O)OC(c2ccccc2)C1I (mixture of isomers) [10b] ; mean percentage of viable cells ± SD = 16 ± 0.09%
